Molecular target: Carboxypeptidase B (Helicoverpa zea, UniProt Q3T905)
Sequence (Q3T905 whole entry): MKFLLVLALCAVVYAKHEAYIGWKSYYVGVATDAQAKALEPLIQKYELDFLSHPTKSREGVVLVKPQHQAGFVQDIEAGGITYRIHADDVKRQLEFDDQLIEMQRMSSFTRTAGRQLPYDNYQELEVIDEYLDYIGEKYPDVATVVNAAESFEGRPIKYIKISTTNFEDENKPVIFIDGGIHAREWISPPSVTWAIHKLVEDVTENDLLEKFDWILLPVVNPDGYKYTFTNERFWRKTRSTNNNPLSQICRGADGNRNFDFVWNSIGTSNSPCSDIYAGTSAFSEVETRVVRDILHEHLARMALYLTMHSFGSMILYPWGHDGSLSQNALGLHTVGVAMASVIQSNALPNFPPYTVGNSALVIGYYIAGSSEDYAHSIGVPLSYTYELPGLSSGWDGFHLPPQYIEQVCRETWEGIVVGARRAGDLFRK
reportedMetric: Ki (µM)

1) COC(=O)c1ccccc1NC(=S)N(Cc1ccco1)Cc1cc2cccc(C)c2[nH]c1=O; 1.2
2) O=C(Cn1nnc(-c2cccs2)n1)N1CCc2ccccc2C1; 62
3) Cc1ccc(C(=O)CSc2nnc(COc3cccc4cccnc34)o2)cc1; 14
4) Nc1nccc2ccc(CC(N)C(=O)O)cc12 (stereo unspecified); 129
5) O=C(O)CCSc1nnc(COc2cccc3ccccc23)n1-c1ccccc1; 35
6) Cc1ccc(C(=O)CSc2nnc(COc3ccc4ccccc4c3)o2)cc1; 1.6
